experiment: Inhibition of Penicillium decumbens alpha-L-rhamnosidase
Each record here notes measured pIC50.
pIC50 (log units): -log10 of the concentration in mol/L.

Some compounds with known pIC50 results, for comparison:
| Structure as smiles | Measurement |
| --- | --- |
| COc1ccc(C[C@@H]2NC[C@H](O)[C@H]2O)cc1 | 5.43 |
| OC[C@H](O)[C@@H]1NC[C@H](O)[C@@H]1O | 4.28 |
| C[C@H]1N[C@@H](CO)[C@H](O)[C@H](O)[C@H]1O | 3.07 |
| OC[C@H]1[C@@H](O)[C@@H](O)CN1Cc1ccccc1 | 4.68 |

## Task // returns reported pIC50 for input OC[C@@H]1[C@H](O)[C@@H](O)[C@@H]2CCCCN12
## Result 5.48

## Task // returns reported pIC50 for input C[C@H]1NC[C@H](O)[C@H](O)[C@H]1O
## Result 5.30

Reference for the values: ChEMBL document CHEMBL3868599
